target: GABA-A receptor; alpha-1/beta-2/gamma-2 (Homo sapiens, UniProt P14867+P18507+P47870); test: Antagonist activity at human GABAA alpha-1-beta-2-gamma-2 receptor expressed in mouse tsA201 cells by FMP red assay; type: functional, cell-based
Sequence (P14867 whole entry): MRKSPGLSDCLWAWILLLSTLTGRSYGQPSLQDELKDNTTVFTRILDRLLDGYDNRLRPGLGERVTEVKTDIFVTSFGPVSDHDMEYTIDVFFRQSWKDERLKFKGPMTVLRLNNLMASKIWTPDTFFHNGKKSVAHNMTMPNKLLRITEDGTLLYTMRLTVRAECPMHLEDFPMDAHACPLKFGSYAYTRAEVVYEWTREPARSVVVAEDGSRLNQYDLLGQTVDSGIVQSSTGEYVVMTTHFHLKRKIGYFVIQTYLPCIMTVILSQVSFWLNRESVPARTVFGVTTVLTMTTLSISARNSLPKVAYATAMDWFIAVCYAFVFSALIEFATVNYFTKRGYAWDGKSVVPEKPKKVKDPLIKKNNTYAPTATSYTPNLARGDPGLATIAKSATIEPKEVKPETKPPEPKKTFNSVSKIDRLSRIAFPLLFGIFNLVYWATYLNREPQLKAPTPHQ
Sequence (P47870 whole entry): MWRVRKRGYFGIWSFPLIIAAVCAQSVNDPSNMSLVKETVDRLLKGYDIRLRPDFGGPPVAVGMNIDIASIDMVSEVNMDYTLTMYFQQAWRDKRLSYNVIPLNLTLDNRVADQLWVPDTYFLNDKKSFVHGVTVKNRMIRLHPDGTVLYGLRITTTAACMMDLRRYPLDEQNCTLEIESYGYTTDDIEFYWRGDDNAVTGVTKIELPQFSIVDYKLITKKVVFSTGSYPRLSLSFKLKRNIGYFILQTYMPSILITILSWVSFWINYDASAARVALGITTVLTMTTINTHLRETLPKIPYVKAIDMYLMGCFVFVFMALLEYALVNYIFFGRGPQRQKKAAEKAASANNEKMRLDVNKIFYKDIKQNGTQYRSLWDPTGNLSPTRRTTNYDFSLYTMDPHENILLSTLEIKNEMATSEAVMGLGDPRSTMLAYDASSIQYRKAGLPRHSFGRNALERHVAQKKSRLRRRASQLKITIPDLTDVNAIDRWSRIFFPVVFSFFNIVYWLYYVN
Sequence (P18507 whole entry): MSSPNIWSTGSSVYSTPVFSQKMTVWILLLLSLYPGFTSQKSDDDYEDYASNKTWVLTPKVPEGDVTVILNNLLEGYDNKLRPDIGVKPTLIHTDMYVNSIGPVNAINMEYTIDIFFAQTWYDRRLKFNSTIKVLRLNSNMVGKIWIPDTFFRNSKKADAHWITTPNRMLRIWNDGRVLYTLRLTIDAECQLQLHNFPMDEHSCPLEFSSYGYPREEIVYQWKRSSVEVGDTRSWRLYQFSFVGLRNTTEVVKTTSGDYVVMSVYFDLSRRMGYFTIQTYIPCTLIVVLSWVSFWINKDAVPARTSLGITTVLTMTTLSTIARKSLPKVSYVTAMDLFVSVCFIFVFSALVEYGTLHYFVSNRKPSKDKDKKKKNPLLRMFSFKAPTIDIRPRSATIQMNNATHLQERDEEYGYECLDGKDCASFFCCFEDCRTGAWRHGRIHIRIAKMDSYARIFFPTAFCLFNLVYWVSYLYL
Attribute measured: IC50 (nM)

| Molecule | Study target | Attribute measured | Unit annotation | Recorded number |
| --- | --- | --- | --- | --- |
| Br.On1ncc(C2CCNCC2)c1-c1ccccc1 | GABA-A receptor; alpha-1/beta-2/gamma-2 (Homo sapiens, UniProt P14867+P18507+P47870) | IC50 | nM | 150 |
| Cl.On1ncc(C2CCNCC2)c1-c1cccc(-c2ccccc2)c1 | GABA-A receptor; alpha-1/beta-2/gamma-2 (Homo sapiens, UniProt P14867+P18507+P47870) | IC50 | nM | 24 |
| Br.On1cc(C2CCNCC2)c(-c2ccc(-c3ccccc3)cc2)n1 | GABA-A receptor; alpha-1/beta-2/gamma-2 (Homo sapiens, UniProt P14867+P18507+P47870) | IC50 | nM | 1400 |
| Br.Cc1ccc(-c2nn(O)cc2C2CCNCC2)cc1 | GABA-A receptor; alpha-1/beta-2/gamma-2 (Homo sapiens, UniProt P14867+P18507+P47870) | IC50 | nM | 1400 |

###

Readings of Ki for the listed compounds
test: Displacement of [3H]muscimol from GABAA in rat synaptic membrane in presence of 10% DMSO by scintillation counting; format: cell membranes

| Molecule | Ki |
| --- | --- |
| Cl.On1ncc(C2CCNCC2)c1Cc1ccc2ccccc2c1Br | 9.5 nM |
| Br.On1nc(Cc2ccc3ccccc3c2)c(C2CCNCC2)c1-c1ccccc1 | 22 nM |
| Cl.On1nc(-c2ccccc2)c(C2CCNCC2)c1Cc1ccc2ccccc2c1 | 1500 nM |

###

assay: Displacement of [3H]muscimol from GABAA in rat synaptic membrane by scintillation counting; format: cell membranes
Readings of pKi for the listed molecules

| Molecule | pKi |
| --- | --- |
| Cl.On1cc(C2CCNCC2)c(Cc2ccccc2)n1 | 6.45 |
| Cl.On1cc(C2CCNCC2)cn1 | 4.99 |
| Br.Cc1nn(O)cc1C1CCNCC1 | 5.31 |
| Br.On1cc(C2CCNCC2)c(Cc2ccc3ccccc3c2)n1 | 8.55 |
| Br.Cc1ccc(-c2nn(O)cc2C2CCNCC2)cc1 | 6.5 |
| Cl.On1ncc(C2CCNCC2)c1Cc1ccc2ccccc2c1 | 7.48 |
| Cc1cccc(-c2nn(O)cc2C2CCNCC2)c1.Cl | 6.62 |

###

assay: Displacement of [3H]muscimol from GABAA in rat synaptic membrane by scintillation counting; assay type: cell membranes
// classify: if (Ki < 200 nM) condition met else condition not met

| Molecule | Class name |
| --- | --- |
| Br.Cc1ccc(-c2nn(O)cc2C2CCNCC2)cc1 | condition not met |
| Cc1ccccc1-c1nn(O)cc1C1CCNCC1.Cl | condition not met |
| Cl.On1cc(C2CCNCC2)c(Cc2ccccc2)n1 | condition not met |
| Br.On1ncc(C2CCNCC2)c1-c1ccccc1 | condition met |
| Br.On1cc(C2CCNCC2)c(-c2ccc(-c3ccccc3)cc2)n1 | condition not met |
| Oc1noc(C2CCNCC2)c1Cc1ccc2ccccc2c1 | condition met |
| Br.Cc1nn(O)cc1C1CCNCC1 | condition not met |
| Cl.On1cc(C2CCNCC2)c(-c2cccc(-c3ccccc3)c2)n1 | condition met |
| Br.On1cc(C2CCNCC2)c(Cc2ccc3ccccc3c2)n1 | condition met |
| Cc1cccc(-c2nn(O)cc2C2CCNCC2)c1.Cl | condition not met |
| Oc1noc(C2CCNCC2)c1-c1cccc(-c2ccccc2)c1 | condition met |
| Br.On1cc(C2CCNCC2)c(-c2ccccc2)n1 | condition not met |
| Oc1noc(C2CCNCC2)c1Cc1ccc2ccccc2c1Br | condition met |
| Oc1noc(C2CCNCC2)c1-c1ccccc1 | condition not met |
| Cl.On1ncc(C2CCNCC2)c1Cc1ccc2ccccc2c1 | condition met |
| Cl.On1cc(C2CCNCC2)cn1 | condition not met |

###

assay: Displacement of [3H]muscimol from GABAA in rat synaptic membrane by scintillation counting; assay type: cell membranes
Each entry gets Not satisfied if its pKi stays under 7, and Satisfied if its pKi is 7 or above.

| Molecule | Class name |
| --- | --- |
| Br.On1ncc(C2CCNCC2)c1-c1ccccc1 | Satisfied |
| Br.On1cc(C2CCNCC2)c(-c2ccccc2)n1 | Not satisfied |
| Cl.On1cc(C2CCNCC2)c(-c2cccc(-c3ccccc3)c2)n1 | Satisfied |
| Cc1ccccc1-c1nn(O)cc1C1CCNCC1.Cl | Not satisfied |
| Br.On1cc(C2CCNCC2)c(-c2ccc(-c3ccccc3)cc2)n1 | Not satisfied |
